assay: pharmacokinetics and tolerability in male Wistar rats; conditions: male, Wistar, rat, plasma, ip, 3 mg/kg
Endpoint Name: half-life (h)
Numbers only, in h.

Challenge: Report half-life for `O=C(O)c1cc(-c2ccc([C@]3(O)[C@@H]4CNC[C@H]3C4)cc2)c2ccc(-c3ccc(C(F)(F)F)cc3)cc2c1` please.
Response given: 4.3
